# Test system: blackgrass
# experimentSummary: Test B pre/postemergence blackgrass
# Type: in vivo, Alopecurus myosuroides
# particulars: Preemergence, Rate 500 g/ha; scale of 0 to 10 where 0 is no effect and 10 is complete control
quantityKind: Plant response rating, Blackgrass

[[record]]
compound = "COCCOCn1c(=O)on(C(=O)N(c2ccc(F)cc2)C(C)C)c1=O [Compound 220]"
testvalue = 10

[[record]]
compound = "CC(C)N(C(=O)n1oc(=O)n(CC(F)F)c1=O)c1ccc(F)cc1F"
testvalue = 9

[[record]]
compound = "COC(=O)C(CCO)n1c(=O)on(C(=O)N(c2ccccc2)C(C)C)c1=O (stereo not shown)"
testvalue = 0

[[record]]
compound = "COCCOCn1c(=O)on(C(=O)N(c2ccc(F)cc2)C(C)C)c1=O [Compound 258]"
testvalue = 8

[[record]]
compound = "CC[C@@H](C)n1c(=O)on(C(=O)N(c2ccc(Cl)cc2)C(C)C)c1=O"
testvalue = 9

[[record]]
compound = "CC[C@@H](C)n1c(=O)on(C(=O)N(c2ccc(F)cc2F)C(C)C)c1=O"
testvalue = 10

[[record]]
compound = "C=C(Cn1c(=O)on(C(=O)N(c2ccccc2)C(C)C)c1=O)C(C)(C)C"
testvalue = 5


----------
# Tested on: cocklebur
# experimentSummary: Test B pre/postemergence cocklebur
# Assay type: in vivo, Xanthium strumarium
# particulars: Rate 500 g/ha, Postemergence; scale 0 to 10, 0 no effect, 10 complete control
Below, each entry is listed alongside its reported Cocklebur plant response rating.
quantityKind: Cocklebur plant response rating

[[record]]
molecule = "CC(C)N(C(=O)n1oc(=O)n(C2CCCC2)c1=O)c1ccc(Cl)cc1 [Compound 282]"
testvalue = 2

[[record]]
molecule = "COCCOCn1c(=O)on(C(=O)N(c2ccc(F)cc2)C(C)C)c1=O [Compound 258]"
testvalue = 1

[[record]]
molecule = "Cc1nn(C)c(Cl)c1-n1c(=O)on(C(=O)N(c2ccc(F)cc2)C(C)C)c1=O [Compound 95]"
testvalue = 2

[[record]]
molecule = "CCN(C(=O)n1oc(=O)n(Cc2cccs2)c1=O)C1CCCCC1 [Compound 82]"
testvalue = 0

[[record]]
molecule = "CCn1c(=O)on(C(=O)N(c2ccc(F)cc2F)C(C)C)c1=O [Compound 116]"
testvalue = 5

[[record]]
molecule = "CC(C)N(C(=O)n1oc(=O)n(C2CC2)c1=O)c1ccccc1 [Compound 243]"
testvalue = 0

[[record]]
molecule = "CCc1noc(C)c1-n1c(=O)on(C(=O)N(c2ccc(F)cc2)C(C)C)c1=O [Compound 101]"
testvalue = 0

[[record]]
molecule = "Cc1ccccc1-n1c(=O)on(C(=O)N(c2ccncc2)C(C)C)c1=O [Compound 301]"
testvalue = 0


----------
# Test system: surinam grass
# experimentSummary: Test B pre/postemergence surinam grass
# Format: in vivo, Brachiaria decumbens
# particulars: Preemergence, Rate 250 g/ha; scale 0 to 10, 0 is no effect, 10 is complete control
# Description: […] At the same time, these crop and weed species were also treated with postemergence applications of test chemicals formulated in the same manner. […] Treated plants and controls were maintained in a greenhouse for twelve to sixteen days, after which all species were compared to controls and visually evaluated. […]
quantityKind: B. signalgrass plant response rating

[[record]]
smilestext = "Cc1ccccc1Cn1c(=O)on(C(=O)N(c2ccc(Cl)cc2)C(C)C)c1=O"
testvalue = 5

[[record]]
smilestext = "CC(C)N(C(=O)n1oc(=O)n(CC[N+](=O)[O-])c1=O)c1ccc(Cl)cc1"
testvalue = 0

[[record]]
smilestext = "CC(C)N(C(=O)n1oc(=O)n([C@H](C)c2ccccc2)c1=O)c1ccc(Cl)cc1"
testvalue = 8

[[record]]
smilestext = "Cc1ccccc1-n1c(=O)on(C(=O)N(c2ccccc2F)C(C)C)c1=O"
testvalue = 0

[[record]]
smilestext = "CC(C)N(C(=O)n1oc(=O)n(CC#N)c1=O)c1ccc(Cl)cc1"
testvalue = 0


----------
# Tested on: wheat
# experimentSummary: Test B pre/postemergence wheat
# Type: in vivo, Triticum aestivum
# particulars: Rate 62 g/ha, Postemergence; scale of 0 to 10 where 0 is no effect and 10 is complete control
quantityKind: Wheat plant response rating

[[record]]
compound = "Cc1ccccc1-n1c(=O)on(C(=O)N(c2ccccc2F)C(C)C)c1=O [Compound 204]"
testedtarget = "wheat"
quantitykind = "Wheat plant response rating"
testvalue = 0

[[record]]
compound = "CCn1c(=O)on(C(=O)N(c2ccc(F)cc2)C(C)C)c1=O [Compound 107]"
testedtarget = "wheat"
quantitykind = "Wheat plant response rating"
testvalue = 2

[[record]]
compound = "CC(C)N(C(=O)n1oc(=O)n(C2CCC2)c1=O)c1ccc(F)cc1 [Compound 350]"
testedtarget = "wheat"
quantitykind = "Wheat plant response rating"
testvalue = 0

[[record]]
compound = "CC(C)N(C(=O)n1oc(=O)n(C2(C)CC2)c1=O)c1ccccc1 [Compound 360]"
testedtarget = "wheat"
quantitykind = "Wheat plant response rating"
testvalue = 3

[[record]]
compound = "CCOC(=O)Cn1c(=O)on(C(=O)N(c2ccc(F)cc2)C(C)C)c1=O [Compound 128]"
testedtarget = "wheat"
quantitykind = "Wheat plant response rating"
testvalue = 0

[[record]]
compound = "C=C(C)Cn1c(=O)on(C(=O)N(c2ccc(F)cc2)C(C)C)c1=O [Compound 139]"
testedtarget = "wheat"
quantitykind = "Wheat plant response rating"
testvalue = 2

[[record]]
compound = "COCCOCn1c(=O)on(C(=O)N(c2ccc(F)cc2)C(C)C)c1=O [Compound 220]"
testedtarget = "wheat"
quantitykind = "Wheat plant response rating"
testvalue = 3

[[record]]
compound = "CCC(C)N(C(=O)n1oc(=O)n(-c2ccccc2C)c1=O)c1ccc(F)cc1 (stereo not shown) [Compound 239]"
testedtarget = "wheat"
quantitykind = "Wheat plant response rating"
testvalue = 0

[[record]]
compound = "CC(C)N(C(=O)n1oc(=O)n(CCCC(F)(F)F)c1=O)c1ccc(F)cc1 [Compound 398]"
testedtarget = "wheat"
quantitykind = "Wheat plant response rating"
testvalue = 0

[[record]]
compound = "CCn1c(=O)on(C(=O)N(c2ccc(F)cc2F)C(C)C)c1=O [Compound 116]"
testedtarget = "wheat"
quantitykind = "Wheat plant response rating"
testvalue = 0


----------
# Tested on: smallflower flatsedge
# experimentSummary: Test B flood test smallflower flatsedge
# Assay type: in vivo, Cyperus difformis
# particulars: Rate 125 g/ha; under heading Pre-emergence; flood test species; visual evaluation after twelve to sixteen days
quantityKind: S. Flatsedge plant response rating (0 to 10 scale, 0 is no effect, 10 is complete control)

[[record]]
molecule = "CC(C)N(C(=O)n1oc(=O)n([C@@H]2C[C@H]2C)c1=O)c1ccc(F)cc1 (relative stereo)"
testvalue = 0

[[record]]
molecule = "CC[C@@H](C)n1c(=O)on(C(=O)N(c2ccc(F)cc2F)C(C)C)c1=O"
testvalue = 0

[[record]]
molecule = "CCOC(=O)CC(C(=O)OCC)n1c(=O)on(C(=O)N(c2ccccc2)C(C)C)c1=O (stereo not drawn)"
testvalue = 0

[[record]]
molecule = "CC(C)N(C(=O)n1oc(=O)n(CCCC#N)c1=O)c1ccccc1"
testvalue = 0

[[record]]
molecule = "COC(=O)C(CCO)n1c(=O)on(C(=O)N(c2ccccc2)C(C)C)c1=O (stereo not drawn)"
testvalue = 0

[[record]]
molecule = "CC(C)N(C(=O)n1oc(=O)n(C(C)Cl)c1=O)c1ccc(F)cc1 (stereo not drawn)"
testvalue = 0

[[record]]
molecule = "CC(=O)NCn1c(=O)on(C(=O)N(c2ccccc2)C(C)C)c1=O"
testvalue = 0

[[record]]
molecule = "CC(C)N(C(=O)n1oc(=O)n(C(C)CCl)c1=O)c1ccccc1 (stereo not drawn)"
testvalue = 0

[[record]]
molecule = "Cc1nc(C)c(C(C)n2c(=O)on(C(=O)N(c3ccc(F)cc3F)C(C)C)c2=O)s1 (stereo not drawn)"
testvalue = 0

[[record]]
molecule = "CC(C)N(C(=O)n1oc(=O)n(CC(=O)C2CC2)c1=O)c1ccc(F)cc1"
testvalue = 0

[[record]]
molecule = "CC(C)N(C(=O)n1oc(=O)n(C(C)CCl)c1=O)c1ccc(Cl)cc1 (stereo not drawn)"
testvalue = 0

[[record]]
molecule = "CC(C)N(C(=O)n1oc(=O)n(C)c1=O)c1ccccc1"
testvalue = 0


----------
# System: velvetleaf
# experimentSummary: Test B pre/postemergence velvetleaf
# Assay type: in vivo, Abutilon theophrasti
# particulars: Rate 500 g/ha, Postemergence; scale 0 to 10, 0 no effect, 10 complete control
quantityKind: Velvetleaf plant response rating

[[record]]
molecule = "Cc1ccccc1-n1c(=O)on(C(=O)N(c2cc(F)ccc2F)C(C)C)c1=O [Compound 68]"
testedtarget = "velvetleaf"
testvalue = 3

[[record]]
molecule = "COc1ccc(N(C(=O)n2oc(=O)n(-c3ccccc3C)c2=O)C(C)C)cc1 [Compound 49]"
testedtarget = "velvetleaf"
testvalue = 0

[[record]]
molecule = "CC(C)N(C(=O)n1oc(=O)n(C2CC2)c1=O)c1ccccc1 [Compound 243]"
testedtarget = "velvetleaf"
testvalue = 7

[[record]]
molecule = "Cc1cc(C)c(-n2c(=O)on(C(=O)N(c3ccc(F)cc3)C(C)C)c2=O)c(Br)c1 [Compound 224]"
testedtarget = "velvetleaf"
testvalue = 4

[[record]]
molecule = "CCC(C)N(C(=O)n1oc(=O)n(-c2ccccc2C)c1=O)c1ccc(F)cc1 (centres unmarked) [Compound 239]"
testedtarget = "velvetleaf"
testvalue = 3

